Attribution: ChEMBL document CHEMBL1201862

# Test system: U-251
# Test: NCI tumour cell line growth inhibition, 48 h
Activity calls are given as the source filed them. Cut-off read from the data, not from the text of the source: active = GI50 up to about 1.1 µM and inactive = higher.
Recorded GI50 by entry

Q: Please give the measured GI50 for this compound: O=C(CCN(C(=O)O)S(=O)(=O)c1ccc(NC(=O)c2ccccc2)cc1)NC1CCCCC1
Result: 36.3 µM (inactive)

---

# System: NCI-H23
# Test: NCI tumour cell line growth inhibition, 48 h
Active and inactive are the calls of the source. No stated cut-off is given here; in the data, active = GI50 up to about 1.1 µM and inactive = higher.
Entry note: the call must match one of Yes for active, No for inactive

O=C(Nc1c(Cl)cc([N+](=O)[O-])cc1Cl)C(=O)C(C1OC(=O)c2ccccc21)[N+](=O)[O-] (stereo not given) | No
C[n+]1c2ccccc2c(NC(CCC(N)=O)C(=O)O)c2ccccc21 (stereo not given) | No
CN(C)c1nc(N(C)C)nc(N(C)CN(C)c2ccc(Cl)cc2)n1 | No
CC1NC(=O)CC(c2ccccc2)N(N=O)C1c1ccccc1 (stereo not given) | No
Nc1cc2c(c3ccccc13)C(CCl)CN2C(=O)c1cc2cc(NC(=O)Nc3ccc4[nH]c(C(=O)N5CC(CCl)c6c5cc(N)c5ccccc65)cc4c3)ccc2[nH]1 (stereo not given) | Yes

Q: Recorded call for CN(C)CCNC(=O)c1cccc2c(NCC(=O)O)c3ccccc3nc12 ?
Result: No

Q: Would you kindly repeat that for CC1C(=O)O[B-]2(c3ccccc3)Oc3ccccc3C=[N+]12 (stereo not given) ?
Result: No

Q: Would you kindly repeat that for CC(C)Oc1c(O)c2c3c(oc(=O)n3C=CC2c2ccccc2)c1OC(C)C (stereo not given) ?
Result: No

Q: Would you kindly repeat that for CC(=O)c1cnc2oc3ccc(O)cc3c2c1-c1ccccc1 ?
Result: No

Q: Would you kindly repeat that for CC1C=CC(O)[C@]2(CO)CC3(CCC12)OCCO3 (stereo not given in full) ?
Result: No
